Target: CETP (Homo sapiens, UniProt P11597)
Construct: from tissue; host or cells: human plasma from normal volunteers
Test: CETP in vitro assay ([3H]CE-HDL transfer, Amersham kit TRKQ7005; modified protocol in human plasma)
Type: biochemical
Conditions: multiple values = multiple measurements
quantity: pIC50
Answer as the number alone; pIC50 is minus log10 of concentration in mol/L.

-- ask Looking for the measured pIC50 of O[C@@H](CN1c2cccc(-c3cc(F)c(F)c(F)c3)c2OC[C@@H]1c1cccc(OC(F)(F)C(F)F)c1)C(F)(F)F , can you help?
-- reply 7.39

-- ask Looking for the measured pIC50 of CC(C)(O)CN1c2cccc(-c3cccc(OC(F)(F)F)c3)c2OCC1c1cccc(OC(F)(F)C(F)F)c1 (stereo not shown) , can you help?
-- reply 6.25

-- ask Looking for the measured pIC50 of O[C@@H](CN1c2cccc(-c3cc(F)cc(F)c3)c2OC[C@@H]1c1cccc(OC(F)(F)C(F)F)c1)C(F)(F)F , can you help?
-- reply 7.30

Query compound follows.
-- ask Looking for the measured pIC50 of O[C@@H](CN1c2cccc(-c3cc(F)cc(F)c3)c2OC[C@@H]1c1cccc(OC(F)(F)F)c1)C(F)(F)F , can you help?
-- reply 6.71

----------
Target: CETP (Homo sapiens, UniProt P11597)
Construct: from tissue; host or cells: human plasma from normal volunteers
Experiment: CETP in vitro assay ([3H]CE-HDL transfer, Amersham kit TRKQ7005; modified protocol in human plasma)
Assay type: biochemical
Details: 1 μM compound; multiple values = multiple measurements; 1 µM
Protocol: The CETP inhibitory activity of the compounds was determined using a commercially available kit from Amersham Biosciences (Catalog #TRKQ7005). For the measurement of inhibitory activity in human plasma, a modified protocol (Connolly, D. T. et al., Biochemistry, 39 13870-13879, 2000) was used. […] IC50s were calculated from plots of the % control versus compound concentration. […]
Readings of % Inhibition @ 1 μM for the listed compounds

Check out these entries, answers already filled in.
-- ask Looking for the measured % Inhibition @ 1 μM of OC(CN1c2cccc(-c3cccc(OC(F)(F)F)c3)c2OCC1c1cccc(C(F)(F)F)c1)C(F)(F)F (stereo not drawn) [Compound 71] , can you help?
-- reply 2%

-- ask Looking for the measured % Inhibition @ 1 μM of O[C@@H](CN1c2cccc(-c3cc(C(F)(F)F)cc(C(F)(F)F)c3)c2OC[C@@H]1c1cccc(OC(F)(F)C(F)F)c1)C(F)(F)F [Compound 78] , can you help?
-- reply 62%

-- ask Looking for the measured % Inhibition @ 1 μM of CC(C)(C)C(=O)CC1COc2c(-c3cccc(OC(F)(F)F)c3)cccc2N1CC(O)C(F)(F)F (stereo not drawn) [Compound 57] , can you help?
-- reply 0%

-- ask Looking for the measured % Inhibition @ 1 μM of OC(CN1c2cccc(-c3cccc(OC(F)(F)F)c3)c2OCC1c1ccoc1)C(F)(F)F (stereo not drawn) [Compound 106] , can you help?
-- reply 0%

-- ask Looking for the measured % Inhibition @ 1 μM of CC(C)(O)CN1c2cccc(-c3cccc(OC(F)(F)F)c3)c2OCC1c1cccc(OC(F)(F)C(F)F)c1 (stereo not drawn) [Compound 49] , can you help?
-- reply 24%

-- ask Looking for the measured % Inhibition @ 1 μM of COc1cccc(C2COc3c(-c4cccc(OC(F)(F)F)c4)cccc3N2CC(O)C(F)(F)F)c1 (stereo not drawn) [Compound 100] , can you help?
-- reply 6%

More entries:
-- ask Looking for the measured % Inhibition @ 1 μM of OCCCC1COc2c(-c3cccc(OC(F)(F)F)c3)cccc2N1CC(O)C(F)(F)F (stereo not drawn) [Compound 54] , can you help?
-- reply 1%

-- ask Looking for the measured % Inhibition @ 1 μM of OC(CN1c2cccc(-c3cccc(OC(F)(F)F)c3)c2OCC1c1cccc(C(F)(F)F)c1)C(F)(F)F (stereo not drawn) [Compound 70] , can you help?
-- reply 37%

-- ask Looking for the measured % Inhibition @ 1 μM of OC(CN1c2cccc(-c3cccc(OC(F)(F)F)c3)c2OCC1c1ccc(OC(F)(F)C(F)F)cc1)C(F)(F)F (stereo not drawn) [Compound 93] , can you help?
-- reply 33%

----------
Readings of IC50 for the listed compounds
Molecular target: UniProt P11597
Test: CETP in vitro assay ([3H]CE-HDL transfer, Amersham kit TRKQ7005; modified protocol in human plasma)
Conditions: multiple values = multiple measurements
Give a bare numeral; the unit nM is implied.

-- ask Looking for the measured IC50 of OC(CN1c2cccc(-c3cccc(OC(F)(F)F)c3)c2OCC1c1cccc(Cl)c1)C(F)(F)F (stereo not drawn) [Compound 101] , can you help?
-- reply 214

-- ask Looking for the measured IC50 of OC(CF)CN1c2cccc(-c3cccc(OC(F)(F)F)c3)c2OCC1c1cccc(OC(F)(F)C(F)F)c1 (stereo not drawn) [Compound 68] , can you help?
-- reply 127

More entries:
-- ask Looking for the measured IC50 of O[C@H](CN1c2cccc(-c3cc(F)c(F)c(F)c3)c2OC[C@@H]1c1cccc(OC(F)(F)C(F)F)c1)C(F)(F)F [Compound 77] , can you help?
-- reply 220

----------
Molecular target: CETP (Homo sapiens, UniProt P11597)
Construct: from tissue; host or cells: human plasma from normal volunteers
Test: CETP in vitro assay ([3H]CE-HDL transfer, Amersham kit TRKQ7005; modified protocol in human plasma)
Format: biochemical
Conditions: 1 μM compound; multiple values = multiple measurements
quantity: inhibition at 1 µM
Kindly write the number and append the unit.

-- ask What measured inhibition at 1 µM is associated with O[C@H](CN1c2cccc(-c3cc(F)c(F)c(F)c3)c2OC[C@@H]1c1cccc(OC(F)(F)F)c1)C(F)(F)F on CETP (Homo sapiens, UniProt P11597)?
-- reply 29%

More entries:
-- ask What measured inhibition at 1 µM is associated with CC(=O)NCCN1c2cccc(-c3cccc(OC(F)(F)F)c3)c2OCC1c1cccc(OC(F)(F)C(F)F)c1 (centres unmarked) on CETP (Homo sapiens, UniProt P11597)?
-- reply 0%

-- ask What measured inhibition at 1 µM is associated with CC(C)(C)[Si](C)(C)OCCN1c2cccc(-c3cccc(OC(F)(F)F)c3)c2OCC1c1cccc(OC(F)(F)C(F)F)c1 (centres unmarked) on CETP (Homo sapiens, UniProt P11597)?
-- reply 13%

-- ask What measured inhibition at 1 µM is associated with O[C@@H](CN1c2cccc(-c3cc(F)c(F)c(F)c3)c2OC[C@@H]1c1cccc(OC(F)(F)F)c1)C(F)(F)F on CETP (Homo sapiens, UniProt P11597)?
-- reply 91%

-- ask What measured inhibition at 1 µM is associated with O=C(CN1c2cccc(-c3cccc(OC(F)(F)F)c3)c2OC[C@@H]1c1cccc(OC(F)(F)C(F)F)c1)C(F)(F)F on CETP (Homo sapiens, UniProt P11597)?
-- reply 5%

-- ask What measured inhibition at 1 µM is associated with O[C@H](CN1c2cccc(-c3cc(F)cc(F)c3)c2OC[C@@H]1c1cccc(OC(F)(F)C(F)F)c1)C(F)(F)F on CETP (Homo sapiens, UniProt P11597)?
-- reply 76%

-- ask What measured inhibition at 1 µM is associated with C[C@H](O)CN1c2cccc(-c3cccc(OC(F)(F)F)c3)c2OC[C@@H]1c1cccc(OC(F)(F)C(F)F)c1 on CETP (Homo sapiens, UniProt P11597)?
-- reply 28%

-- ask What measured inhibition at 1 µM is associated with C[C@@H](O)CN1c2cccc(-c3cccc(OC(F)(F)F)c3)c2OC[C@@H]1c1cccc(OC(F)(F)C(F)F)c1 on CETP (Homo sapiens, UniProt P11597)?
-- reply 47%

----------
Molecular target: CETP (Homo sapiens, UniProt P11597)
Construct: from tissue; host or cells: human plasma from normal volunteers
Sequence (P11597 18-493): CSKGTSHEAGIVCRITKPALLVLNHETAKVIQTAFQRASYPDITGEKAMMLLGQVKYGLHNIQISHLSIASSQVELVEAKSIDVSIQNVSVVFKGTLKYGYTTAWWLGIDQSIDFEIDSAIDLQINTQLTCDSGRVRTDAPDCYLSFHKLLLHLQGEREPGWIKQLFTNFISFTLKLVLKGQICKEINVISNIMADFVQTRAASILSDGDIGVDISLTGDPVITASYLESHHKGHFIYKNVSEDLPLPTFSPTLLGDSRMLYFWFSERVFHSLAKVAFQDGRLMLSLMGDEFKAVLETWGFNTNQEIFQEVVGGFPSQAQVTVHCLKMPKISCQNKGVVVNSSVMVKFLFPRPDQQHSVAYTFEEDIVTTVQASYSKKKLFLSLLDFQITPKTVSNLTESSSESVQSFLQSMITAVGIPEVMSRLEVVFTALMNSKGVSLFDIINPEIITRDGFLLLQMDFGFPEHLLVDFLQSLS
Assay: CETP in vitro assay ([3H]CE-HDL transfer, Amersham kit TRKQ7005; modified protocol in human plasma)
Assay type: biochemical
Settings: 1 μM compound; multiple values = multiple measurements; 1 µM
quantity: % Inhibition @ 1 μM (%)
Give a bare numeral; the unit % is implied.

Check out these entries, answers already filled in.
-- ask What measured % Inhibition @ 1 μM is associated with OC(CN1c2cccc(-c3cccc(OC(F)(F)F)c3)c2OCC1c1ccccc1OC(F)(F)C(F)F)C(F)(F)F (stereo not drawn) [Compound 91] on CETP (Homo sapiens, UniProt P11597)?
-- reply 6

-- ask What measured % Inhibition @ 1 μM is associated with OCCCC1COc2c(-c3cccc(OC(F)(F)F)c3)cccc2N1CC(O)C(F)(F)F (stereo not drawn) [Compound 52] on CETP (Homo sapiens, UniProt P11597)?
-- reply 13

-- ask What measured % Inhibition @ 1 μM is associated with OC(CN1c2cccc(-c3cccc(OC(F)(F)F)c3)c2OCC1c1cccs1)C(F)(F)F (stereo not drawn) [Compound 104] on CETP (Homo sapiens, UniProt P11597)?
-- reply 0

-- ask What measured % Inhibition @ 1 μM is associated with COc1ccc(C2COc3c(-c4cccc(OC(F)(F)F)c4)cccc3N2CC(O)C(F)(F)F)s1 (stereo not drawn) [Compound 63] on CETP (Homo sapiens, UniProt P11597)?
-- reply 17

-- ask What measured % Inhibition @ 1 μM is associated with O[C@@H](CN1c2cccc(-c3cccc(OC(F)(F)F)c3)c2SC[C@H]1c1cccc(OC(F)(F)C(F)F)c1)C(F)(F)F [Compound 108] on CETP (Homo sapiens, UniProt P11597)?
-- reply 39

Query compound follows.
-- ask What measured % Inhibition @ 1 μM is associated with OC(CN1c2cccc(-c3cccc(OC(F)(F)F)c3)c2OCC1c1cccs1)C(F)(F)F (stereo not drawn) [Compound 103] on CETP (Homo sapiens, UniProt P11597)?
-- reply 20
